# Tested on: Caenorhabditis elegans (Bristol N2)
# assay: C. elegans larval development and growth assay
# conditionSet: 50 µM
Listed compounds paired with reported EXT: mean difference in nematode size relative to plate controls

compound | valueReported
Cl.N=C1C=CC(=C(c2ccc(N)cc2)c2ccc(N)cc2)C=C1 [C.I. Basic red 9 monohydrochloride] | 0.3061
O=C(Nc1ccc(Oc2ccc(Cl)cc2)c(Cl)c1)c1cc(I)cc(I)c1O [Rafoxanide, reference compound] | 1.69
CC(C)[C@@H]1NC(=O)[C@H](C)OC(=O)[C@@H](C(C)C)NC(=O)[C@@H](C(C)C)OC(=O)[C@H](C(C)C)NC(=O)[C@H](C)OC(=O)[C@@H](C(C)C)NC(=O)[C@@H](C(C)C)OC(=O)[C@H](C(C)C)NC(=O)[C@H](C)OC(=O)[C@@H](C(C)C)NC(=O)[C@@H](C(C)C)OC1=O | 0.3415
O=C(Nc1ccccc1)Nc1ccccc1 | 0.1792
O=C(O)c1cc(O)c2c(c1)C(=O)c1cccc(O)c1C2=O | 0.296
NNc1nc(-c2ccc(N)cc2)cs1 [2-Hydrazino-4-(4-aminophenyl) thiazole] | 0.1347
COc1cc2c(cc1OC)-c1cc3ccc(OC)c(OC)c3c[n+]1CC2 [Palmatine chloride hydrate] | 0.1943

Next item in the queue.
Recorded EXT: mean difference in nematode size relative to plate controls for CC[C@@H](C(=O)[C@@H](C)[C@@H](O)[C@H](C)CCc1ccc(C)c(O)c1C(=O)O)[C@H]1O[C@](CC)([C@H]2CC[C@](O)(CC)[C@H](C)O2)C[C@@H]1C [Lasalocid sodium, reference compound] , please? 1.753
